# Max response annotations
# Test system: YAC-1
# experiment_description: Percent of maximum response was tested for its ability to stimulate the natural killer response in murine in vitro cell assays
# Assay type: functional, Mus musculus
Give the quantity in %, number only.

{"columns": ["molecule", "Max response / %"],
 "data": [
  ["C=CCn1c(=O)n([C@@H]2O[C@H](CO)[C@H]3OC(C)(CCC(=O)OCC)O[C@H]32)c2nc(N)nc(O)c21 (some centres undefined)", 19],
  ["C=CCn1c(=O)n(C2OC(CO[Si](c3ccccc3)(c3ccccc3)C(C)(C)C)[C@@H](O)[C@H]2O)c2nc(N)nc(O)c21 (some centres undefined)", 15],
  ["C=CCn1c(=S)n(COCCO)c2nc(N)nc(O)c21", 28],
  ["Nc1nc(O)c2c(n1)n(C1OC(CO)[C@@H](O)[C@H]1O)c(=O)n2CCCl (some centres undefined)", 83],
  ["Nc1nc(O)c2nc(S)n([C@H]3O[C@H](CO)[C@@H](O)[C@H]3O)c2n1", 0],
  ["Cn1c(=O)n(C2OC(CO)[C@@H](O)[C@H]2O)c2nc(N)nc(O)c21 (some centres undefined)", 72],
  ["Nc1nc(O)c2c(n1)n(C1OC(CO)[C@@H](O)[C@H]1O)c(=O)n2Cc1ccc(Cl)cc1 (some centres undefined)", 27],
  ["C=CCn1c(=S)n(C2OC(COC(C)=O)[C@@H](OC(C)=O)[C@H]2OC(C)=O)c2nc(NC(C)=O)nc(O)c21 (some centres undefined)", 77]
]}

// switching to the query molecule
Lab note: Nc1nc(O)c2c(n1)n(C1OC(CO)[C@@H](O)[C@H]1O)c(=O)n2Cc1ccc(Cl)c(Cl)c1 (some centres undefined) gave Max response of 15

---

# Species: Mus musculus
# experiment_description: Percent of maximum response was tested to augment the antibody response of B cells to sheep red blood cell challenge
# Type: functional
Note to self: use yes only for Max response readings below 40%; a reading exactly at 40% still gets no.

Examples from the recorded data:
{"columns": ["compound", "label_class"],
 "data": [
  ["C=CCn1c(=O)n([C@@H]2O[C@H](CO)[C@H]3OC(C)(CCC(=O)NC)O[C@H]32)c2nc(N)nc(O)c21 (some centres undefined)", "yes"],
  ["C=CCSc1nc2c(O)nc(N)nc2n1C1OC(CO)[C@@H](O)[C@H]1O (some centres undefined)", "no"],
  ["Nc1nc(O)c2c(n1)n(C1OC(CO)[C@@H](O)[C@H]1O)c(=O)n2CCCl (some centres undefined)", "no"],
  ["CCCn1c(=O)n(C2CCC(CO)O2)c2nc(NC(=O)C(C)(C)C)nc(O)c21 (centres undefined)", "yes"],
  ["C=CCn1c(=S)n([C@@H]2O[C@H](CO)[C@H]3OC(C)(C)O[C@H]32)c2nc(N)nc(O)c21", "no"],
  ["Cn1c(=O)n(C2OC(CO)[C@@H](O)[C@H]2O)c2nc(N)nc(O)c21 (some centres undefined)", "no"],
  ["COc1ccc(Cn2c(=O)n(C3OC(CO)[C@@H](O)[C@H]3O)c3nc(N)nc(O)c32)cc1 (some centres undefined)", "no"],
  ["C=CCn1c(=S)n(COCCO)c2nc(N)nc(O)c21", "yes"]
]}

We next turn to a different compound, shown below.
Query :: hey, is Max response for C=CCn1c(=[Se])n(C2OC(CO)[C@@H](O)[C@H]2O)c2nc(N)nc(O)c21 (some centres undefined) lower than 40% or not?
Result :: no

---

# Species on record: Mus musculus
# experiment_description: Percent of maximum response was tested to augment the antibody response of B cells to sheep red blood cell challenge
# Type: functional
readout_label: Max response (%)
Express your answer in %, writing the number without its unit.

Worked cases, Max response given:
{"columns": ["compound", "readout_label", "measured_value"],
 "data": [
  ["Nc1nc(O)c2c(n1)n(C1OC(CO)[C@@H](O)[C@H]1O)c(=O)n2Cc1ccccc1 (some centres undefined)", "Max response", 110],
  ["C=CCn1c(=O)n(CCCCCCCC)c2nc(N)nc(O)c21", "Max response", 130],
  ["C=CCn1c(=O)n([C@@H]2O[C@H](CO)[C@@H](O)[C@H]2O)c2nc(N)[nH]c(=O)c21", "Max response", 100],
  ["C=CCn1c(=S)n(C2OC(CO)[C@@H](O)[C@H]2O)c2nc(N)nc(O)c21 (some centres undefined)", "Max response", 100],
  ["Nc1nc(O)c2c(n1)n(C1OC(CO)[C@@H](O)[C@H]1O)c(=O)n2Cc1ccc([N+](=O)[O-])cc1 (some centres undefined)", "Max response", 147]
]}

Given item C=CCn1c(=O)n(CCc2ccc(OC)c(OC)c2)c2nc(N)nc(O)c21 , the value recorded as its Max response is 0

The reported value for C=CCn1c(=O)n(CCCCO)c2nc(N)nc(O)c21 in terms of Max response is 12

C=CCn1c(=O)n(C2OC(CO[Si](c3ccccc3)(c3ccccc3)C(C)(C)C)[C@@H](O)[C@H]2O)c2nc(N)nc(O)c21 (some centres undefined) yielded Max response of 33

Briefly, Max response measured for C=CCn1c(=O)n(CCCC)c2nc(N)nc(O)c21 : 77

---

# Species: Mus musculus
# experiment_description: Percent of maximum response was tested to augment the antibody response of B cells to sheep red blood cell challenge
# Assay type: functional
Recorded measurements of Max response, one per entry
Field: value (include unit after the number)

Solved cases (8 shown):
{"columns": ["compound", "measured_value"],
 "data": [
  ["Nc1nc(O)c2nc(S)n([C@@H]3O[C@H](CO)[C@@H](O)[C@H]3O)c2n1", "100%"],
  ["C=CCn1c(=O)n(C2CCC(CO)C2)c2nc(N)nc(O)c21 (centres undefined)", "26%"],
  ["Nc1nc(O)c2c(n1)n(C1OC(CO)[C@@H](O)[C@H]1O)c(=O)n2C/C=C/c1ccccc1 (some centres undefined)", "73%"],
  ["Nc1nc(O)c2c(n1)n(C1OC(CO)[C@@H](O)[C@H]1O)c(=O)n2CCN1CCCCC1 (some centres undefined)", "0%"],
  ["N#Cc1ccc(Cn2c(=O)n(C3OC(CO)[C@@H](O)[C@H]3O)c3nc(N)nc(O)c32)cc1 (some centres undefined)", "50%"],
  ["C=CCn1c(=S)n(C2OC(CO)[C@@H](O)C(O)[C@H]2O)c2nc(N)nc(O)c21 (some centres undefined)", "5%"],
  ["Nc1nc(O)c2c(n1)n(C1OC(CO)[C@@H](O)[C@H]1O)c(=O)n2CC(O)CN1CCN(c2ccc(F)cc2)CC1 (some centres undefined)", "16%"],
  ["C=CCn1c(=O)n([C@H]2CO[C@@H](CO)C2)c2nc(N)nc(O)c21", "10%"]
]}

get_value(item= Nc1nc(O)c2c(n1)n(C1OC(CO)[C@@H](O)[C@H]1O)c(=O)n2Cc1ccc(Cl)c(Cl)c1 (some centres undefined) , readout=Max response) returns 55%

---

# Test system: YAC-1
# experiment_description: Percent of maximum response was tested for its ability to stimulate the natural killer response in murine in vitro cell assays
# Format: functional, Mus musculus
readout_label: Max response (%)
Numbers only; they are read as %.

{"columns": ["compound", "result_unit", "measured_value"],
 "data": [
  ["C=CCn1c(=O)n([C@H]2CO[C@@H](CO)C2)c2nc(N)nc(O)c21", "%", 0],
  ["C=CCn1c(=S)n(C2OC(CO)[C@@H](O)C(O)[C@H]2O)c2nc(N)nc(O)c21 (stereo partly drawn)", "%", 3],
  ["C=CCn1c(=O)n(C2OC(COC(=O)COC)[C@@H](OC(=O)COC)[C@H]2OC(=O)COC)c2nc(NC(=O)COC)nc(O)c21 (stereo partly drawn)", "%", 60],
  ["C=CCn1c(=O)n([C@@H]2O[C@H](CO)[C@H]3OC(C)(CCC(=O)NC)O[C@H]32)c2nc(N)nc(O)c21 (stereo partly drawn)", "%", 0],
  ["C=CCn1c(=O)n(C2OC(CO[Si](C)(C)C(C)(C)C)[C@@H](O)[C@H]2O)c2nc(N)nc(O)c21 (stereo partly drawn)", "%", 6],
  ["C=CCn1c(=O)n([C@@H]2O[C@H](CO)[C@H]3OC(CCC)(CCC)O[C@H]32)c2nc(N)nc(O)c21", "%", 56],
  ["C=CCn1c(=O)n(C2CN(C(c3ccccc3)c3ccccc3)CC(CO)O2)c2nc(N)nc(O)c21 (stereo not drawn)", "%", 46]
]}

Let us move to another entry and its Max response.
Lookup result for CCCn1c(=O)n(C2CCC(CO)O2)c2nc(NC(=O)C(C)(C)C)nc(O)c21 (stereo not drawn) ; measured Max response: 0

Where do these numbers come from? They come from ChEMBL document CHEMBL1127795.
